System: SjSte2 with peptide proteases
Assay type: cell-based, Schizosaccharomyces japonicus
Conditions: read-out: apparent EC50
No end group written: not given here.
recordedEndpoint: EC50

Reported EC50 of VSDRVKQMLSHWWNERNPDTANL [SjPep] : > 100 µM

* * *

Biological target: ScSte2 (Saccharomyces cerevisiae)
Sequence (D6VTK4 whole entry): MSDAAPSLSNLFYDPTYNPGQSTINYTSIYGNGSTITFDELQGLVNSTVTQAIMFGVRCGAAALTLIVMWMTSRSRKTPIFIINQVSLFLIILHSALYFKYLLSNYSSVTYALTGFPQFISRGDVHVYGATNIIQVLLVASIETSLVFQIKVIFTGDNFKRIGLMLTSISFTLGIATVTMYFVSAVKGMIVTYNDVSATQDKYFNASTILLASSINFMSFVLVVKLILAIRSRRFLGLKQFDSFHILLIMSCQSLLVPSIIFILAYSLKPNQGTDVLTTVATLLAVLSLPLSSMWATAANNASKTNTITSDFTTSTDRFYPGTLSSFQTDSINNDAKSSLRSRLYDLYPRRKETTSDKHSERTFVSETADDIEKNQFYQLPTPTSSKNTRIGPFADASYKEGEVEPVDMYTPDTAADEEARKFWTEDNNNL
Assay: ScSte2 biosensor dose-response, ymTurquoise2 readout, no protease (incl. ScPep alanine scan, yTC391)
Type: cell-based
Conditions: Hill function best-fit ± standard error
No end group written: not given here.
recordedEndpoint: Hill Slope

Known Hill Slope results, listed for orientation:
{"sequenceData": "WHALQLKPGQPMY [ScPep3A]", "measurement": "2.5 ± 0.1"}
{"sequenceData": "WAWLQLKPGQPMY [ScPep2A]", "measurement": "3.7 ± 0.2"}
{"sequenceData": "AHWLQLKPGQPMY [ScPep1A]", "measurement": "3.4 ± 0.8"}
{"sequenceData": "WHWLQLKPAQPMY [ScPep9A]", "measurement": "5.0 ± 1.3"}
{"sequenceData": "WHWLQLKPGAPMY [ScPep10A]", "measurement": "5.3 ± 3.7"}
{"sequenceData": "WHWLQLAPGQPMY [ScPep7A]", "measurement": "2.6 ± 0.4"}
{"sequenceData": "WHWLALKPGQPMY [ScPep5A]", "measurement": "3.4 ± 0.3"}
{"sequenceData": "WHWLQLKPGQPMA [ScPep13A]", "measurement": "8.2 ± 3.1"}
{"sequenceData": "WHWLQAKPGQPMY [ScPep6A]", "measurement": "5.6 ± 0.7"}
{"sequenceData": "WHWLQLKAGQPMY [ScPep8A]", "measurement": "2.7 ± 0.1"}

We now examine a further sequence.
The measured Hill Slope that WHWLQLKPGQAMY [ScPep11A] showed for ScSte2 (Saccharomyces cerevisiae) is 4.6 ± 1.3

* * *

System: CaSte2 with protease CaBar1
Conditions: CaSte2 + CaBar1 (yBB02); Hill function best-fit ± standard error
No end group written: not given here.
Recorded Hill Slope by entry
Could you respond with only the numeric value?

Known Hill Slope results, listed for orientation:
{"sequenceData": "GFRLTNFGYFEAG [12A]", "measurement": 1.1}
{"sequenceData": "GFRLTNFGAAEPG [9A10A]", "measurement": 1.0}
{"sequenceData": "GARLTNFGYFEPA [CaPep2A13A]", "measurement": 0.86}

The measured Hill Slope that GFRLTNFAYFEPG [CaPep8A] showed for CaSte2 with protease CaBar1 is 1.0

The measured Hill Slope that AFRLTNFGYFEPG [CaPep1A] showed for CaSte2 with protease CaBar1 is 1.1

The measured Hill Slope that GFALTNFGYFEPG [CaPep3A] showed for CaSte2 with protease CaBar1 is 0.74

The measured Hill Slope that GARLTNFGYFEPG [CaPep2A] showed for CaSte2 with protease CaBar1 is 1.6

The measured Hill Slope that GFRLTNFGYFAPG [CaPep11A] showed for CaSte2 with protease CaBar1 is 1.5

* * *

Target: ScSte2 with protease ScBar1 (Saccharomyces cerevisiae)
Assay type: cell-based
No end group written: not given here.
# cutoff 400 A.U. applies to Top; >= gives Met, < gives Not met

Some solved cases for reference:
{"sequenceData": "WHWLQLKPGAPMY [ScPep10A]", "discreteLabel": "Met"}
{"sequenceData": "WHWLQLAPGQPMY [ScPep7A]", "discreteLabel": "Not met"}
{"sequenceData": "WHALQLKPGQPMY [ScPep3A]", "discreteLabel": "Not met"}

Query :: Does WAWLQLKPGQPMY [ScPep2A] have a reported Top of at least 400 A.U.?
Result :: Not met

Query :: Does WHWLQLKAGQPMY [ScPep8A] have a reported Top of at least 400 A.U.?
Result :: Met

Query :: Does WHWLQLKPGQPAY [ScPep12A] have a reported Top of at least 400 A.U.?
Result :: Met

* * *

Molecular target: ScSte2 with protease ScBar1 (Saccharomyces cerevisiae, UniProt D6VTK4)
Sequence (D6VTK4 whole entry): as above
Format: cell-based
No end group written: not given here.
So basically, if Bottom comes in under 6 A.U. it's True, and if it's 6 A.U. or more it's False.

Some solved cases for reference:
{"sequenceData": "WHALQLKPGQPMY [ScPep3A]", "discreteLabel": "False"}
{"sequenceData": "WHWLALKPGQPMY [ScPep5A]", "discreteLabel": "True"}
{"sequenceData": "WHWLQAKPGQPMY [ScPep6A]", "discreteLabel": "True"}
{"sequenceData": "WHWLQLKPAQPMY [ScPep9A]", "discreteLabel": "True"}
{"sequenceData": "WHWAQLKPGQPMY [ScPep4A]", "discreteLabel": "True"}
{"sequenceData": "WHWLQLKPGQPAY [ScPep12A]", "discreteLabel": "True"}

Now, please, on to the next sequence.
Query :: Criterion: Bottom strictly below 6 A.U.. Is it met by AHWLQLKPGQPMY [ScPep1A] ?
Result :: True

* * *

Target: ScSte2 with protease ScBar1 (Saccharomyces cerevisiae, UniProt D6VTK4)
Assay type: cell-based
No end group written: not given here.
recordedEndpoint: Hill Slope
Could you respond with only the numeric value?

{"sequenceData": "WHWLQLKPGQPAY [ScPep12A]", "Hill Slope": 1.3}
{"sequenceData": "WHWLQLKPAQPMY [ScPep9A]", "Hill Slope": 1.2}
{"sequenceData": "WHWLQLAPGQPMY [ScPep7A]", "Hill Slope": 1.7}
{"sequenceData": "WHWAQLKPGQPMY [ScPep4A]", "Hill Slope": 0.72}

Reported Hill Slope of WHALQLKPGQPMY [ScPep3A] : 0.74

Reported Hill Slope of WHWLQLKPGQPMA [ScPep13A] : 1.2

* * *

System: CpSte2
Type: cell-based, Candida parapsilosis
Settings: yTC453, optimized
No end group written: not given here.
recordedEndpoint: EC50

Reported EC50 of KPHWTTYGYYEPQ [CpPep] : ~9 nM

* * *

Molecular target: ScSte2 with protease ScBar1 (Saccharomyces cerevisiae, UniProt D6VTK4)
Type: cell-based
No end group written: not given here.
# cutoff 400 A.U. applies to Top; >= gives met, < gives not met

{"sequenceData": "WHWLQLKPGQPMA [ScPep13A]", "assayedSystem": "ScSte2 with protease ScBar1 (Saccharomyces cerevisiae, UniProt D6VTK4)", "discreteLabel": "met"}
{"sequenceData": "WHWLQLKPAQPMY [ScPep9A]", "assayedSystem": "ScSte2 with protease ScBar1 (Saccharomyces cerevisiae, UniProt D6VTK4)", "discreteLabel": "met"}
{"sequenceData": "WHWAQLKPGQPMY [ScPep4A]", "assayedSystem": "ScSte2 with protease ScBar1 (Saccharomyces cerevisiae, UniProt D6VTK4)", "discreteLabel": "not met"}

Query :: Does AHWLQLKPGQPMY [ScPep1A] have a reported Top of at least 400 A.U.?
Result :: not met

Query :: Does WHWLALKPGQPMY [ScPep5A] have a reported Top of at least 400 A.U.?
Result :: not met

* * *

Biological target: ScSte2 with protease ScBar1 (Saccharomyces cerevisiae)
Format: cell-based
No end group written: not given here.
Recorded Bottom by entry

{"sequenceData": "WAWLQLKPGQPMY [ScPep2A]", "recordedEndpoint": "Bottom", "measurement": "5.9 ± 3.0 A.U."}
{"sequenceData": "WHWLQLAPGQPMY [ScPep7A]", "recordedEndpoint": "Bottom", "measurement": "5.7 ± 1.3 A.U."}
{"sequenceData": "WHWLQLKAGQPMY [ScPep8A]", "recordedEndpoint": "Bottom", "measurement": "4.6 ± 2.6 A.U."}

Reported Bottom of WHWLQLKPGAPMY [ScPep10A] : 8.3 ± 1.6 A.U.

Reported Bottom of WHWLQLKPGQPMA [ScPep13A] : 4.6 ± 2.5 A.U.

Reported Bottom of WHWLQLKPGQAMY [ScPep11A] : 8.0 ± 2.5 A.U.

* * *

Biological target: ScSte2 with protease ScBar1 (Saccharomyces cerevisiae)
Assay type: cell-based
No end group written: not given here.
Recorded Hill Slope by entry
Could you respond with only the numeric value?

{"sequenceData": "WHWLQAKPGQPMY [ScPep6A]", "assayedSystem": "ScSte2 with protease ScBar1 (Saccharomyces cerevisiae)", "recordedEndpoint": "Hill Slope", "measurement": 0.99}
{"sequenceData": "WHWLQLKAGQPMY [ScPep8A]", "assayedSystem": "ScSte2 with protease ScBar1 (Saccharomyces cerevisiae)", "recordedEndpoint": "Hill Slope", "measurement": 1.1}
{"sequenceData": "WHWLALKPGQPMY [ScPep5A]", "assayedSystem": "ScSte2 with protease ScBar1 (Saccharomyces cerevisiae)", "recordedEndpoint": "Hill Slope", "measurement": 1.2}

Reported Hill Slope of WAWLQLKPGQPMY [ScPep2A] : 1.5

Reported Hill Slope of WHWLQLKPGAPMY [ScPep10A] : 1.8

Reported Hill Slope of AHWLQLKPGQPMY [ScPep1A] : 0.76

Reported Hill Slope of WHWLQLKPGQAMY [ScPep11A] : 1.5
